Here's a roundup of IC50 values tested on Tyrosine-protein kinase JAK2 (Homo sapiens, UniProt O60674), taken from various published works.

Enquiry: Write down the reported IC50 of CCC(CC)n1cc(-c2nc(-c3cnn(C[C@@H](O)CC)c3)cn3nccc23)cn1 , test system: Tyrosine-protein kinase JAK2 (Homo sapiens, UniProt O60674).
Return: 10 to 100 nM

Enquiry: Report IC50 for CN(c1ncnc2[nH]ccc12)C1CC2(C1)CN(C(=O)c1cccc(C#N)c1)C2 tested on Tyrosine-protein kinase JAK2 (Homo sapiens, UniProt O60674).
Return: 100 to 1000 nM

Enquiry: Please tell me: IC50 of CN(c1ncnc2[nH]ccc12)C1CCN(S(=O)(=O)c2ccccc2)CC1 , system Tyrosine-protein kinase JAK2 (Homo sapiens, UniProt O60674)?
Return: 19 nM

Enquiry: Return IC50 measured with Tyrosine-protein kinase JAK2 (Homo sapiens, UniProt O60674) given this molecule: C[C@H](O)C(=O)N1CC[C@H](Oc2ccc(-c3ncnc(Nc4ccc(N5CCN(C6(C)COC6)CC5)cc4)n3)cc2C#N)[C@H](F)C1
Return: 636 nM

Enquiry: Under Tyrosine-protein kinase JAK2 (Homo sapiens, UniProt O60674): IC50 value of CN(c1ncnc2[nH]ccc12)C1CCC2(CC1)CCN(C(=O)Cc1ccc(C#N)cc1)CC2 ?
Return: 100 to 1000 nM

Enquiry: Param readout = IC50; param system = Tyrosine-protein kinase JAK2 (Homo sapiens, UniProt O60674); param query = N#Cc1cc(-c2ncnc(Nc3ccc(N4CCN(C5COC5)CC4)cc3)n2)ccc1O[C@H]1CCN(C(=O)c2ccnn2CCO)C[C@H]1F ; response: value
Return: 213 nM

Enquiry: Find IC50 (Tyrosine-protein kinase JAK2 (Homo sapiens, UniProt O60674)) for the entry Cc1cnc2nc1Nc1cccc(c1)CCCCNC(=O)c1ccc(cc1)-c1cnc(F)c(c1)N2
Return: < 10 nM

Enquiry: What IC50 appears in the records for this molecule with Tyrosine-protein kinase JAK2 (Homo sapiens, UniProt O60674)? C[C@@H](NC(=O)c1ccc(N2CC(CC#N)(n3cc(-c4ncnc5[nH]ccc45)cn3)C2)cc1F)C1CC1
Return: 10 to 40 nM

Enquiry: What IC50 appears in the records for this molecule with Tyrosine-protein kinase JAK2 (Homo sapiens, UniProt O60674)? COC(=O)NC[C@H]1CC[C@H](n2c(CC#N)nc3cnc4ccsc4c32)CC1
Return: ≤ 1000 nM

Enquiry: Item: CC(C)COc1ccc2cc1COc1ccc(cc1)NC(=O)c1ccc(c([N+](=O)[O-])c1)-c1ccnc(n1)N2 Test system: Tyrosine-protein kinase JAK2 (Homo sapiens, UniProt O60674) Read-out: IC50 Value: ?
Return: > 10000 nM

Enquiry: # returns recorded IC50 (system: Tyrosine-protein kinase JAK2 (Homo sapiens, UniProt O60674)) for CN(c1ncnc2[nH]ccc12)C1CC2(C1)CN(C(=O)Cc1c[nH]c3ccccc13)C2
Return: 1000 to 10000 nM

Enquiry: API: value(readout= IC50, system= Tyrosine-protein kinase JAK2 (Homo sapiens, UniProt O60674), query= CCC(CC)n1cc(-c2nc(-c3cnn(C[C@@H](O)CCO)c3)cn3nccc23)cn1 (single isomer, unassigned) )
Return: 10 to 100 nM

Enquiry: Enter reported IC50 observed with Tyrosine-protein kinase JAK2 (Homo sapiens, UniProt O60674) for COc1cc(F)cc(F)c1COc1ccc2cc1COCC[C@@H](C)CNC(=O)c1ccc(c(N)c1)-c1ccnc(n1)N2
Return: 101 to 1000 nM

Enquiry: Form entry - test system: Tyrosine-protein kinase JAK2 (Homo sapiens, UniProt O60674); read-out: IC50; molecule: O=C(NCC(CO)C(F)(F)F)c1noc2c1CN(c1ncnc3[nH]ccc13)CC2 (centres unmarked)
Return: < 100 nM

Enquiry: Record Cc1ncc(C(=O)N2CC[C@H](Oc3ccc(-c4ncnc(Nc5ccc(N6CCN(C7COC7)CC6)cc5)n4)cc3C#N)[C@H](F)C2)n1C : what is its IC50 with Tyrosine-protein kinase JAK2 (Homo sapiens, UniProt O60674)?
Return: 387 nM

Enquiry: Recorded IC50 for N#Cc1cc(-c2ncnc(Nc3ccc(N4CCN(C5COC5)CC4)cc3)n2)ccc1OC1CCCN(C(=O)CO)CC1 (centres unmarked) with Tyrosine-protein kinase JAK2 (Homo sapiens, UniProt O60674), please?
Return: 241 nM

Enquiry: Give recorded IC50 with Tyrosine-protein kinase JAK2 (Homo sapiens, UniProt O60674) for the following molecule: O=C1NCCCCOCc2cc(ccc2OCc2cccc3c2CCO3)Nc2nccc(n2)-c2ccc1cc2[N+](=O)[O-]
Return: > 10000 nM

Enquiry: Record COc1cnc(Nc2cccc(C(=O)N3CCC(OC)CC3)c2)nc1-c1cnn(C(CC#N)C2CC2)c1 (racemic) : what is its IC50 with Tyrosine-protein kinase JAK2 (Homo sapiens, UniProt O60674)?
Return: < 100 nM

Enquiry: Look up IC50 with Tyrosine-protein kinase JAK2 (Homo sapiens, UniProt O60674) for this molecule: CNC(=O)c1n[nH]c2nc(-c3cc(F)c(O)cc3CC(F)(F)F)nc(NCc3ccccc3N(C)S(C)(=O)=O)c12
Return: 27.7 nM

Enquiry: Lab note: need IC50 with Tyrosine-protein kinase JAK2 (Homo sapiens, UniProt O60674) for entry CS(=O)(=O)N1CC(CNC(=O)c2noc3c2CN(c2ncnc4[nH]ccc24)CC3)C1 , please look it up.
Return: 500 to 2000 nM

Enquiry: Record lookup: for Tyrosine-protein kinase JAK2 (Homo sapiens, UniProt O60674), what IC50 belongs to NC(=O)c1cnc(Nc2ccc3c(c2)NC[C@H](O)CO3)nc1NCC1CCCCC1 ?
Return: < 10 nM

Enquiry: Entry CCC(=O)NC[C@H]1CC[C@H](n2c(CC#N)nc3cnc4ccsc4c32)CC1 , system Tyrosine-protein kinase JAK2 (Homo sapiens, UniProt O60674): what IC50 was measured?
Return: > 2000 nM

Enquiry: Write down the reported IC50 of COc1ccsc1C(=O)N1CCC(N2CC(CC#N)(n3cc(-c4ncnc5[nH]ccc45)cn3)C2)CC1 , test system: Tyrosine-protein kinase JAK2 (Homo sapiens, UniProt O60674).
Return: ≤ 10 nM

Enquiry: Recorded IC50 for Cc1cc(C)c(OC[C@H](O)CNc2cc[nH]c(=O)c2-c2nc3cc4c(cc3[nH]2)C(=O)N(C2CCN(C)CC2)C4=O)c(C)c1 with Tyrosine-protein kinase JAK2 (Homo sapiens, UniProt O60674), please?
Return: 5000 to 15000 nM

Enquiry: Can you look up IC50 on Tyrosine-protein kinase JAK2 (Homo sapiens, UniProt O60674) for CCS(=O)(=O)N1CC(CC#N)(n2cc(-c3nc(Nc4cnn(CCCN5CCOCC5)c4)nc4ccsc34)cn2)C1 ?
Return: < 50 nM

Enquiry: // fetch Tyrosine-protein kinase JAK2 (Homo sapiens, UniProt O60674) IC50 for CN(C)CCNC(=O)c1ccc2[nH]c3c(C(N)=O)cc(-c4ccc(Cl)c(Cl)c4)cc3c2c1
Return: 6 nM

Enquiry: Form entry - test system: Tyrosine-protein kinase JAK2 (Homo sapiens, UniProt O60674); read-out: IC50; molecule: Cc1ccc(C(=O)Nc2cccc(S(F)(F)(F)(F)F)c2)cc1-c1ccc2c(c1)[nH]c1ncncc12
Return: ≤ 500 nM

Enquiry: State its IC50 on Tyrosine-protein kinase JAK2 (Homo sapiens, UniProt O60674): CCOC(=O)Cn1cc(Nc2ncc3ccn(C[C@H]4CC[C@H](NC)CC4)c3n2)cn1
Return: < 100 nM

Enquiry: Given the entry CC(C)CNc1nc(Nc2ccc3c(c2)NC[C@H](O)CO3)ncc1C(N)=O , what IC50 was observed with Tyrosine-protein kinase JAK2 (Homo sapiens, UniProt O60674)?
Return: < 10 nM
